Origin of measurements: ChEMBL document CHEMBL1128713

assay.target: Lactase/phlorizin hydrolase (Rattus norvegicus)
run.description: Inhibition of Glycosidases (lactase)in rat intestinal brush border membranes by D-glucose oxidase-peroxidase method
pIC50: −log10 of the molar value.
measurement.name: pIC50

| structure.notation | assay.target | pIC50 |
| --- | --- | --- |
| CN1C[C@@H](O)[C@H](O)[C@H]1CO | Lactase/phlorizin hydrolase (Rattus norvegicus) | > 4.30 |

# ---- query molecule ----
// pIC50 lookup, molecule = CN1C[C@H](O)[C@@H](O)[C@H](O)[C@H]1CO , result: 5.36

----------
assay.target: Sucrase-isomaltase, intestinal (Rattus norvegicus)
Sequence (P23739 1-1013 limits assumed): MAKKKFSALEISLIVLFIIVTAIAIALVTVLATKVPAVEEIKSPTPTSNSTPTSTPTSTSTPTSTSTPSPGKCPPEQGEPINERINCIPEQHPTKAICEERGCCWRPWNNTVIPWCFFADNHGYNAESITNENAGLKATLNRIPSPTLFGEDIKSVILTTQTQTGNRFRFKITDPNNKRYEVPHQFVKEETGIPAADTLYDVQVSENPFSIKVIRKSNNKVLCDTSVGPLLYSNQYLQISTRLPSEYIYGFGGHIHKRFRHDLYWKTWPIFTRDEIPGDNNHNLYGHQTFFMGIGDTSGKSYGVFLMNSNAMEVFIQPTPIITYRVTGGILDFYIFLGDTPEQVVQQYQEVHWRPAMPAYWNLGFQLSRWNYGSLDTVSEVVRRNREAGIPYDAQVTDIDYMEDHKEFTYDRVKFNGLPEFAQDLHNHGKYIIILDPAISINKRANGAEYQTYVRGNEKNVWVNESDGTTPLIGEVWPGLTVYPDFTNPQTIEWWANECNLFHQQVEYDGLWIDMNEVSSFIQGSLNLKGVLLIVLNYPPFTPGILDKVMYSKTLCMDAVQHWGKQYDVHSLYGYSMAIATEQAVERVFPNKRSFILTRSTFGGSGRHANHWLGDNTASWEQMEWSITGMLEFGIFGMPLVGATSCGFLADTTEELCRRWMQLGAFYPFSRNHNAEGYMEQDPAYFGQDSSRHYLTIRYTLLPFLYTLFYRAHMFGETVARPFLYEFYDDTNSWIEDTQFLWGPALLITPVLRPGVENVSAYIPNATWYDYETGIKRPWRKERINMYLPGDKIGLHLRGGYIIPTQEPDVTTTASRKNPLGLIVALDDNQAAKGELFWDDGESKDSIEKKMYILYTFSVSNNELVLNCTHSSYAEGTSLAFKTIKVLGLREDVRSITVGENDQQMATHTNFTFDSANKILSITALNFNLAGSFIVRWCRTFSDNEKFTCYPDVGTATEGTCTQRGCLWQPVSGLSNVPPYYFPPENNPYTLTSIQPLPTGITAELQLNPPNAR
Sequence (P23739 1014-1841 limits assumed): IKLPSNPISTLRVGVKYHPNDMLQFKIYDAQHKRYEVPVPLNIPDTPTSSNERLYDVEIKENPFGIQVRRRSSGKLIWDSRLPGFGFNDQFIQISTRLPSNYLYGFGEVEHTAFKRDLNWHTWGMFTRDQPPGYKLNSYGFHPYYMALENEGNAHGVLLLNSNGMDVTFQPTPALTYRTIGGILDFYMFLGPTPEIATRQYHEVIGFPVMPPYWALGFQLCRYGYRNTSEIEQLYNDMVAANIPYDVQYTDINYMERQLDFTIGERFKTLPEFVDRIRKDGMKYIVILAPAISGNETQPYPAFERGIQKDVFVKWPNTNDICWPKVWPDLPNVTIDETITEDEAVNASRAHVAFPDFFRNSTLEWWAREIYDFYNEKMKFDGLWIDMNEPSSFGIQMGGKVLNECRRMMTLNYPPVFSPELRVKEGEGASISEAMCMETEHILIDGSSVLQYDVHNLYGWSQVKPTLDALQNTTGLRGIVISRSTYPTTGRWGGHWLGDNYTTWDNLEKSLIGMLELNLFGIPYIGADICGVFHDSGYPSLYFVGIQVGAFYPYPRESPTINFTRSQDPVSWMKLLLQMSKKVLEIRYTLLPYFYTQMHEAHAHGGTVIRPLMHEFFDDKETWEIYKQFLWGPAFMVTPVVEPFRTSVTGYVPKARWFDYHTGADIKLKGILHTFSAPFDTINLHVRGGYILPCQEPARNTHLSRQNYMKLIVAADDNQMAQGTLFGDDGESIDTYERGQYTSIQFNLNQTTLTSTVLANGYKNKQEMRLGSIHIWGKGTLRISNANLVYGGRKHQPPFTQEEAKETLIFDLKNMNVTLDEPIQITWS
run.description: Inhibition of Sucrase in rat intestinal brush border membranes by D-glucose oxidase-peroxidase method
Type: cell membranes, Membrane
pIC50: −log10 of the molar value.
measurement.name: pIC50

A. CN1C[C@@H](O)[C@H](O)[C@H]1CO
B. CN1C[C@H](O)[C@@H](O)[C@H](O)[C@H]1CO
C. OC[C@H]1N[C@H](CO)[C@@H](O)[C@@H]1O
D. CN1[C@H](CO)[C@@H](O)[C@H](O)[C@H]1CO
Order these molecules (above) by their pIC50, from the smallest value upward. Your answer should be the labels, listed in the requested order.
D, A, C, B
(D: 3.21, A: 4.15, C: 4.36, B: 7.40)

----------
assay.target: Lactase/phlorizin hydrolase (Rattus norvegicus, UniProt Q02401)
Sequence (Q02401 868-1928 limits assumed): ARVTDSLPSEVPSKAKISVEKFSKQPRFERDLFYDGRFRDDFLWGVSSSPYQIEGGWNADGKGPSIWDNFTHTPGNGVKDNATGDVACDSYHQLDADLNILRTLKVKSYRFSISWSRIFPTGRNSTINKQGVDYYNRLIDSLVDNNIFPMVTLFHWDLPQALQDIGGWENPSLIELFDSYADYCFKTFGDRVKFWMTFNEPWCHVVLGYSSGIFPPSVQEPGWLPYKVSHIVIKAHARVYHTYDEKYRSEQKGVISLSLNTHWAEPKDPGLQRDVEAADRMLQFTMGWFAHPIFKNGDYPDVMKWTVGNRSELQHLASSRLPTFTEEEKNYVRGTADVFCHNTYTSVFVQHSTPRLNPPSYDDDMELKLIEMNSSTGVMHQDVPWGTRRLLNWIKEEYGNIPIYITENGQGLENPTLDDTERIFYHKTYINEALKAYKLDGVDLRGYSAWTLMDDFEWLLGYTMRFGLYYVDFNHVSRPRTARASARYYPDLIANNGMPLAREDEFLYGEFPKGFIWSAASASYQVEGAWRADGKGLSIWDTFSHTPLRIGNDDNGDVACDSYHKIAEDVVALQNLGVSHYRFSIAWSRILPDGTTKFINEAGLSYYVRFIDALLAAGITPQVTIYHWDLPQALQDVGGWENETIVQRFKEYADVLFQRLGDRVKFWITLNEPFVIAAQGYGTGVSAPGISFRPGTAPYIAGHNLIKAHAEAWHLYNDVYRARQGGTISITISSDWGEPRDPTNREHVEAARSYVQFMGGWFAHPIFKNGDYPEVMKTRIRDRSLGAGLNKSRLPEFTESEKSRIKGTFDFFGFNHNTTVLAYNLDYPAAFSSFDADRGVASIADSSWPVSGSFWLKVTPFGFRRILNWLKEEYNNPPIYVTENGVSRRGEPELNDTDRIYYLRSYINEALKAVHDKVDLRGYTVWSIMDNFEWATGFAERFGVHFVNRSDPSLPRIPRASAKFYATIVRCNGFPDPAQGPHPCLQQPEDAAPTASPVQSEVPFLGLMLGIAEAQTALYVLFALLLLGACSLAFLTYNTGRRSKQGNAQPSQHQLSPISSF
run.description: Inhibition of Glycosidases (lactase)in rat intestinal brush border membranes by D-glucose oxidase-peroxidase method
pIC50: −log10 of the molar value.
measurement.name: pIC50

| structure.notation | pIC50 |
| --- | --- |
| CN1[C@H](CO)[C@@H](O)[C@H](O)[C@H]1CO | > 4.30 |
| CCCCN1C[C@@H](O)[C@H](O)[C@H]1CO | > 4.30 |
| OC[C@H]1NC[C@@H](O)[C@@H]1O | 3.59 |

Now look at this one.
Just so you know, measured pIC50 for CCCCN1[C@H](CO)[C@@H](O)[C@H](O)[C@H]1CO came out at > 4.30
